Target: Tyrosine-protein phosphatase non-receptor type 2 (Homo sapiens)
Sequence (P17706 whole entry): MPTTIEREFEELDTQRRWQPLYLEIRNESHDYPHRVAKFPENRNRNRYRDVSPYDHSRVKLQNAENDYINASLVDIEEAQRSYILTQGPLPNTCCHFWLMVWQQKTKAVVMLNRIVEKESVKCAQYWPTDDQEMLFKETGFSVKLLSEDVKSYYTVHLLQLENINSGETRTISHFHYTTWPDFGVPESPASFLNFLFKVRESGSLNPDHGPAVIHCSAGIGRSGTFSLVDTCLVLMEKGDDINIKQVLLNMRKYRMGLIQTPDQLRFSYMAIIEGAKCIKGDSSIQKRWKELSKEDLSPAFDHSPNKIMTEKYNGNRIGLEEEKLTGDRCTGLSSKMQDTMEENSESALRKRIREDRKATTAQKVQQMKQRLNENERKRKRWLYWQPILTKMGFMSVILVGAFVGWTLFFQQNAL
Test: Inhibition of human PTPN2 expressed in Escherichia coli Rosetta 2 (DE3) using pNPP as substrate after 45 mins by spectrophotometric method
measurement_name: pIC50
pIC50 here is simply -log10 of the concentration when that concentration is written in mol/L.

O=S(=O)(Nc1ccc(-c2nc3cc(NS(=O)(=O)c4cccs4)ccc3o2)cc1)c1cccs1
4.39
O=S(=O)(Nc1ccc2oc(-c3ccccc3)nc2c1)c1ccc(Cl)cc1
4.46
CCc1ccc(S(=O)(=O)Nc2ccc3oc(-c4ccccc4)nc3c2)cc1
4.26
C=Cc1ccc(S(=O)(=O)Nc2ccc(-c3nc4ccccc4o3)cc2)cc1
4.48

Test system Tyrosine-protein phosphatase non-receptor type 2 (Homo sapiens); read-out pIC50; what value for `C=Cc1ccc(S(=O)(=O)Nc2ccc3oc(-c4ccc(NS(=O)(=O)c5ccc(Cl)s5)cc4)nc3c2)cc1` ?
4.92
